assay: Half life in CD1 mouse liver microsomes at 1 uM preincubated for 5 mins followed by NADPH addition and measured by LC/MS/MS analysis; type: ADME, microsome; conditions: CD1, mouse, liver microsomes
Reported Endpoint: half-life at 1 µM (min)

# Structure, Result Unit, Measured
measured = [
    ("O=C(N[C@@H](Cn1ccnc1)c1ccc(-c2ccc(F)cc2)cc1Cl)c1ccc(-c2nnc(-c3ccncc3)o2)cc1", "min", 55),
]

* * *

assay: Half life in Sprague-Dawley rat liver microsomes at 1 uM preincubated for 5 mins followed by NADPH addition and measured by LC/MS/MS analysis; assay type: ADME, microsome; details: microsomes, 1 µM
# note: boundary value 50 min maps to Not met; t1/2 below it maps to Met

# Structure, Discrete Label
data = [
    ("CS(=O)(=O)c1ccc(-c2ccc([C@H](Cn3ccnc3)NC(=O)c3ccc(-c4nnc(-c5ccccc5)o4)cc3)c(Cl)c2)cc1", "Met"),
    ("O=C(N[C@@H](Cn1ccnc1)c1ccc(-c2ccc(F)cc2)cc1Cl)c1ccc(-c2nnc(-c3ccccn3)o2)cc1", "Not met"),
    ("O=C(N[C@@H](Cn1ccnc1)c1ccc(-c2ccc(F)cc2)cc1F)c1ccc(-c2nnc(-c3ccccc3)o2)cc1", "Not met"),
    ("O=C(N[C@@H](Cn1ccnc1)c1ccc(-c2ccccc2)cc1Cl)c1ccc(-c2nnc(-c3ccccc3)o2)cc1", "Met"),
    ("[2H]c1c([2H])c([2H])c(-c2ccc([C@H](Cn3ccnc3)NC(=O)c3ccc(-c4nnc(-c5ccccc5)o4)cc3)c(Cl)c2)c([2H])c1[2H]", "Met"),
    ("O=C(N[C@@H](Cn1ccnc1)c1ccc(Cl)cc1Cl)c1ccc(-c2nnc(-c3ccc(OCC(F)(F)F)cc3F)o2)cc1", "Met"),
    ("O=C(N[C@@H](Cn1ccnc1)c1ccc(-c2ccc(F)cc2)cc1Cl)c1ccc(-c2nnc(-c3ccccc3)o2)cc1", "Not met"),
]

* * *

biological target: Sterol 14-alpha demethylase (Trypanosoma cruzi (strain CL Brener)) (UniProt Q7Z1V1); experiment: Inhibition of Trypanosoma cruzi Y CYP51 expressed in Escherichia coli using [3-3H]-eburicol as substrate after 60 mins by LC-MS analysis
Sequence (Q7Z1V1 whole entry, looked up): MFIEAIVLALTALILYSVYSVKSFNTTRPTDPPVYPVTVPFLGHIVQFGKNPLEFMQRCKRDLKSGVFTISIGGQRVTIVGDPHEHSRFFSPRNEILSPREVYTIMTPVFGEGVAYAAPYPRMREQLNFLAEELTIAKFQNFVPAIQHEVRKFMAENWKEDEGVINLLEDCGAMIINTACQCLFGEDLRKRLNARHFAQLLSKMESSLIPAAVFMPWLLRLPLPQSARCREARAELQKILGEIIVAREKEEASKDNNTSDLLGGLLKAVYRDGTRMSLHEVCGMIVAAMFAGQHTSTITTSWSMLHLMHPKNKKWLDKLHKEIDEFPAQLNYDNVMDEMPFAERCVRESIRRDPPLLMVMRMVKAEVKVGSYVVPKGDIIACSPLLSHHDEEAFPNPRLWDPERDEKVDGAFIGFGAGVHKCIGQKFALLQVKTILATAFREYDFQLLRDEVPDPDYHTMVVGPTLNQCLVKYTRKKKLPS
Activity calls are given as the source filed them. No cut-off for these calls is given here.
Outcome codes: active, inactive

# Structure, Discrete Label
data = [
    ("O=C(N[C@@H](Cn1ccnc1)c1c(F)cc(-c2ccc(F)cc2)cc1F)c1ccc(-c2nnc(-c3ccccc3)o2)cc1", "active"),
    ("O=C(N[C@@H](Cn1ccnc1)c1ccc(Cl)cc1Cl)c1ccc(-c2nnc(-c3ccc(F)c(F)c3)o2)cc1", "active"),
    ("CS(=O)(=O)c1ccc(-c2ccc([C@H](Cn3ccnc3)NC(=O)c3ccc(-c4nnc(-c5ccccc5)o4)cc3)c(Cl)c2)cc1", "inactive"),
    ("O=C(N[C@@H](Cn1ccnc1)c1ccc(Cl)cc1Cl)c1ccc(-c2nnc(-c3ccc(OCC(F)(F)F)cc3F)o2)cc1", "active"),
]

* * *

experiment: Hepatic clearance in Sprague-Dawley rat liver microsomes at 1 uM preincubated for 5 mins followed by NADPH addition and measured after 45 mins by LC/MS/MS analysis; format: ADME, microsome
Reported Endpoint: CLhep predicted at 1 µM (mL/min/kg)

# Structure, Reported Endpoint, Measured
measured = [
    ("O=C(N[C@@H](Cn1ccnc1)c1ccc(-c2ccc(F)cc2)cc1Cl)c1ccc(-c2nnc(-c3ccccc3)o2)cc1", "CLhep predicted at 1 µM", 23.6),
    ("O=C(N[C@@H](Cn1ccnc1)c1ccc(-c2ccc(F)cc2)cc1F)c1ccc(-c2nnc(-c3ccccc3)o2)cc1", "CLhep predicted at 1 µM", 14.2),
    ("O=C(N[C@@H](Cn1ccnc1)c1c(F)cc(-c2ccc(F)cc2)cc1F)c1ccc(-c2nnc(-c3ccccc3)o2)cc1", "CLhep predicted at 1 µM", 31.1),
    ("O=C(N[C@@H](Cn1ccnc1)c1ccc(-c2ccc(F)cc2)cc1Cl)c1ccc(-c2nnc(-c3ccccn3)o2)cc1", "CLhep predicted at 1 µM", 20.8),
]
